Below is a list of entries, each paired with its recorded GAP kcat value.
# System: Triosephosphate Isomerase from Yeast
# Format: biochemical, Saccharomyces cerevisiae
# ASSAY_CONDITIONS: isomerization of GAP; 30 mM triethanolamine pH 7.5, 25 °C, I = 0.1 (NaCl)
# number only, unit s^–1 dropped from output

The examples below pair each entry with its known result.
>>> reading("S211A (protein, UniProt P00942 2-248, looked up, variant S211A) Triosephosphate isomerase: ARTFFVGGNFKLNGSKQSIKEIVERLNTASIPENVEVVICPPATYLDYSVSLVKKPQVTVGAQNAYLKASGAFTGENSVDQIKDVGAKWVILGHSERRSYFHEDDKFIADKTKFALGQGVGVILCIGETLEEKKAGKTLDVVERQLNAVLEEVKDWTNVVVAYEPVWAIGTGLAATPEDAQDIHASIRKFLASKLGDKAASELRILYGGAANGSNAVTFKDKADVDGFLVGGASLKPEFVDIINSRN")
2800
>>> reading("Y208T/S211G (protein, UniProt P00942 2-248, looked up, variant Y208T S211G) Triosephosphate isomerase: ARTFFVGGNFKLNGSKQSIKEIVERLNTASIPENVEVVICPPATYLDYSVSLVKKPQVTVGAQNAYLKASGAFTGENSVDQIKDVGAKWVILGHSERRSYFHEDDKFIADKTKFALGQGVGVILCIGETLEEKKAGKTLDVVERQLNAVLEEVKDWTNVVVAYEPVWAIGTGLAATPEDAQDIHASIRKFLASKLGDKAASELRILTGGGANGSNAVTFKDKADVDGFLVGGASLKPEFVDIINSRN")
520
>>> reading("S211G (protein, UniProt P00942 2-248, looked up, variant S211G) Triosephosphate isomerase: ARTFFVGGNFKLNGSKQSIKEIVERLNTASIPENVEVVICPPATYLDYSVSLVKKPQVTVGAQNAYLKASGAFTGENSVDQIKDVGAKWVILGHSERRSYFHEDDKFIADKTKFALGQGVGVILCIGETLEEKKAGKTLDVVERQLNAVLEEVKDWTNVVVAYEPVWAIGTGLAATPEDAQDIHASIRKFLASKLGDKAASELRILYGGGANGSNAVTFKDKADVDGFLVGGASLKPEFVDIINSRN")
7500
>>> reading("Y208T (protein, UniProt P00942 2-248, looked up, variant Y208T) Triosephosphate isomerase: ARTFFVGGNFKLNGSKQSIKEIVERLNTASIPENVEVVICPPATYLDYSVSLVKKPQVTVGAQNAYLKASGAFTGENSVDQIKDVGAKWVILGHSERRSYFHEDDKFIADKTKFALGQGVGVILCIGETLEEKKAGKTLDVVERQLNAVLEEVKDWTNVVVAYEPVWAIGTGLAATPEDAQDIHASIRKFLASKLGDKAASELRILTGGSANGSNAVTFKDKADVDGFLVGGASLKPEFVDIINSRN")
3700
>>> reading("Y208F: Y208F loop 7 mutant of yeast triosephosphate isomerase (protein, UniProt P00942 2-248, looked up, variant Y208F) Triosephosphate isomerase: ARTFFVGGNFKLNGSKQSIKEIVERLNTASIPENVEVVICPPATYLDYSVSLVKKPQVTVGAQNAYLKASGAFTGENSVDQIKDVGAKWVILGHSERRSYFHEDDKFIADKTKFALGQGVGVILCIGETLEEKKAGKTLDVVERQLNAVLEEVKDWTNVVVAYEPVWAIGTGLAATPEDAQDIHASIRKFLASKLGDKAASELRILFGGSANGSNAVTFKDKADVDGFLVGGASLKPEFVDIINSRN")
13

Record request: GAP kcat value, item Y208A (protein, UniProt P00942 2-248, looked up, variant Y208A) Triosephosphate isomerase: ARTFFVGGNFKLNGSKQSIKEIVERLNTASIPENVEVVICPPATYLDYSVSLVKKPQVTVGAQNAYLKASGAFTGENSVDQIKDVGAKWVILGHSERRSYFHEDDKFIADKTKFALGQGVGVILCIGETLEEKKAGKTLDVVERQLNAVLEEVKDWTNVVVAYEPVWAIGTGLAATPEDAQDIHASIRKFLASKLGDKAASELRILAGGSANGSNAVTFKDKADVDGFLVGGASLKPEFVDIINSRN
740

Record request: GAP kcat value, item Y208S (protein, UniProt P00942 2-248, looked up, variant Y208S) Triosephosphate isomerase: ARTFFVGGNFKLNGSKQSIKEIVERLNTASIPENVEVVICPPATYLDYSVSLVKKPQVTVGAQNAYLKASGAFTGENSVDQIKDVGAKWVILGHSERRSYFHEDDKFIADKTKFALGQGVGVILCIGETLEEKKAGKTLDVVERQLNAVLEEVKDWTNVVVAYEPVWAIGTGLAATPEDAQDIHASIRKFLASKLGDKAASELRILSGGSANGSNAVTFKDKADVDGFLVGGASLKPEFVDIINSRN
940

Record request: GAP kcat value, item wildtype: wildtype triosephosphate isomerase from Saccharomyces cerevisiae (yTIM) (protein, UniProt P00942 2-248, looked up) Triosephosphate isomerase: ARTFFVGGNFKLNGSKQSIKEIVERLNTASIPENVEVVICPPATYLDYSVSLVKKPQVTVGAQNAYLKASGAFTGENSVDQIKDVGAKWVILGHSERRSYFHEDDKFIADKTKFALGQGVGVILCIGETLEEKKAGKTLDVVERQLNAVLEEVKDWTNVVVAYEPVWAIGTGLAATPEDAQDIHASIRKFLASKLGDKAASELRILYGGSANGSNAVTFKDKADVDGFLVGGASLKPEFVDIINSRN
8900
